Tested on: recombinant human anti-SARS-CoV antibody 03-018
Format: binding
Design: unit not given here
The entries below come with measured Binding of antibody 03-018 to looped/cyclic peptides of the N protein of SARS-CoV Urbani values attached.

{"SEQUENCE ENTRY": "ETALALLLLDRLNQL", "TARGET OR SYSTEM": "recombinant human anti-SARS-CoV antibody 03-018", "REPORTED": 0.3}
{"SEQUENCE ENTRY": "PINTNSGPDDQIGYY", "TARGET OR SYSTEM": "recombinant human anti-SARS-CoV antibody 03-018", "REPORTED": 0.2}
{"SEQUENCE ENTRY": "AQPLPQRQKKQPTVT", "TARGET OR SYSTEM": "recombinant human anti-SARS-CoV antibody 03-018", "REPORTED": 0.1}
{"SEQUENCE ENTRY": "FPRGQGVPINTNSGP", "TARGET OR SYSTEM": "recombinant human anti-SARS-CoV antibody 03-018", "REPORTED": 0.2}

Read the next record carefully.
Query string: What value of measured Binding of antibody 03-018 to looped/cyclic peptides of the N protein of SARS-CoV Urbani is listed for GYYRRATRRVRGGDG ?
Result string: 0.2
